Test system: ovarian cancer cells (A2780)
Protocol summary: MTT cytotoxicity assay, A2780
Type: cell-based, human
Recorded conditions: Homo sapiens, A2780, 72 h, 72-h incubation
pIC50: −log10 of the molar value.
Kindly supply the reported pIC50 values for the records listed here.

>>> df
                                   compound  value_kind  test_result
0  NCCCN1C(=O)NC(CC(=O)NC(CO)C(N)=O)c2cc(NC(=O)COc3ccccc3)ccc21.O=C(O)C(F)(F)F (stereo not drawn)       pIC50       > 4.40
1  CN1C(=O)NC(CC(N)=O)c2cc(NC(=O)COc3ccccc3)ccc21 (stereo not drawn)       pIC50       < 4.00

Read the next record carefully.
Query :: So what's the measured pIC50 for this one? NCCCN1C(=O)NC(CC(=O)NC(CO)C(N)=O)c2cc(NC(=O)Cc3cccs3)ccc21 (stereo not drawn)
Result :: > 4.40
